What EC50 was measured for each of the following?
Target: T1, native RSV F protein from the RSV A2 strain (Respiratory Syncytial Virus strain A2, UniProt P03420 26-574)
T1 construct: also called HEp2 lysate (native); purified RSV F protein (native)
Experiment: ELISA, IgG titrated, estimated EC50
Quick reminder: number only, in nM, skip the unit.

# input Entry IgG form of 38F10 (antibody, V domains shown) VH: EVQLLESGGDVVQPGKSLRLSCTASGFSITDFGIHWVRQAPGKGLEWVALISYNEVNIHYGESVRGRFTISRDIAKNTVYLQMNGLRPEDTGVYFCARDVWEDSWLSLACFQEWGQGSLVVVSS VL: DIQLTQSPPTLSASVGDRVSMTCRASQSISNWLAWYQQKPGKAPKLLIQKASNLEDGVPSRFTASGFGTEFTLTISSLQPDDFATYYCQQYNSYSGLSFGGGTKVDIKR : reported EC50 = ?
# output 0.035

# input Same again, this time with Motavizumab IgG (antibody, V domains shown) VH: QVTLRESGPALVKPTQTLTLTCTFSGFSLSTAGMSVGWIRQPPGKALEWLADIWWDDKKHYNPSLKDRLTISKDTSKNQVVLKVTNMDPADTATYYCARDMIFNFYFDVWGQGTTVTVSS VL: DIQMTQSPSTLSASVGDRVTITCSASSRVGYMHWYQQKPGKAPKLLIYDTSKLASGVPSRFSGSGSGTEFTLTISSLQPDDFATYYCFQGSGYPFTFGGGTKVEIK
# output 0.027

# input Same again, this time with IgG form of 104E5 (antibody, V domains shown) VH: QVQLEQSGAEVKKPGSSVKVSCKPSGGTFDTYTISWVRQAPGQRLEWLGRIIPSLGETNYAHKLQGRVTITADKATSVVYMDLSDLTSEDAAVYYCAFRITGPVDWVWDYGMDVWGQGTTVSVSS VL: DIQMTQSPSSLPASVGDRVTITCRASQNIKTYLNWYQQKPGRAPKLLISAVSNLQSGVPSRFSGTGSGTDFTLTISSLQPEDFATYYCQQSFSIPLTFGGGAKVEIKR
# output 0.0145

# input Same again, this time with IgG form of 17C9 (antibody, V domains shown) VH: QVQLQQWGAGLVRPSETLSLTCAVYGDSFNDYFWTWIRQTPGKGLEWIGEISHSGSTNYSPSLKSRVTISVDTSKNQFSLKLSAVTAADTTVYFCARGVRSRPPPSYRGSGSPPYYHYGMDVWGQGTTVTVSS VL: EIVLTQSPSTLSASVGDRVTITCRASQNINTWLAWYQQKPGKAPKLLIYAASFLQSGVPSRFSGSGSGTDFTLTISNLQPEDFATYFCQQANSFPRTFGQGTKVEVKR
# output 0.059
